target: human recombinant beta-2 adrenoreceptors (Homo sapiens, UniProt P07550); experiment: Beta-2 adrenoceptor binding assay ([3H](−)CGP-12177 displacement); settings: CHO cells expressing human beta-2 adrenoreceptors, [3H](−)CGP-12177 0.3 nM, 120 min
Sequence (P07550 whole entry): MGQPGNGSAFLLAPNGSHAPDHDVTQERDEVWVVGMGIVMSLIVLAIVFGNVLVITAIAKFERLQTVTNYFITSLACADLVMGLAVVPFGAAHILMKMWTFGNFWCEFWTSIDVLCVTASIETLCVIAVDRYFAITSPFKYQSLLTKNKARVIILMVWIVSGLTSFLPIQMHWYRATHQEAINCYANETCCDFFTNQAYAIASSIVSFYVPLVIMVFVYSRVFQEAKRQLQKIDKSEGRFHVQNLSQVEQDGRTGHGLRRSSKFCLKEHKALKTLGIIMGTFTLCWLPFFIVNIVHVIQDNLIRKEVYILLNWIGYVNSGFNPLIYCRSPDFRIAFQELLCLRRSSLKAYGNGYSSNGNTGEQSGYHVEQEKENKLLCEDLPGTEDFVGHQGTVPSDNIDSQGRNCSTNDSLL
recorded-metric: IC50

Q: Query for human recombinant beta-2 adrenoreceptors (Homo sapiens, UniProt P07550): what IC50 does the record show for COc1cccc(Nc2c(C(N)=O)cnc3c(C)cc(S(=O)(=O)c4cccc(C(=O)Nc5ccc(C#CCCCNC[C@H](O)c6ccc(O)c7c6OCC(=O)N7)cc5C)c4)cc23)c1 ?
Ans: < 0.1 µM

###

tested on: LPS-induced TNF-α release from human peripheral blood mononuclear cells (PBMC); test: Inhibition of LPS-induced TNF-α release from human PBMC; type: cell-based; settings: LPS 0.4 ng/mL, 6 h, presence or absence of ICI-118551 not given
recorded-metric: EC50

Solved cases (2 shown):
1. COc1cccc(Nc2c(C(N)=O)cnc3c(C)cc(S(=O)(=O)c4cccc(C(=O)Nc5ccc(CCCCCNC[C@H](O)c6ccc(O)c(CO)c6)cc5)c4)cc23)c1 [Example 26, 2,2,2-trifluoroacetate] ... < 0.1 µM
2. COc1cccc(Nc2c(C(N)=O)cnc3c(C)cc(S(=O)(=O)c4cccc(C(=O)N(C)CCCCCCNC[C@H](O)c5ccc(O)c(CO)c5)c4)cc23)c1 [Example 44] ... < 0.1 µM

Q: Field: EC50 (LPS-induced TNF-α release from human peripheral blood mononuclear cells (PBMC)). Entry: COc1cccc(Nc2c(C(N)=O)cnc3c(C)cc(S(=O)(=O)c4cccc(C(=O)N(C)CCCCCCNC[C@H](O)c5ccc(O)c(NC=O)c5)c4)cc23)c1 [Example 28]
Ans: < 0.1 µM

###

biological target: human recombinant beta-2 adrenoreceptors (Homo sapiens, UniProt P07550); test: Beta-2 adrenoceptor binding assay ([3H](−)CGP-12177 displacement); details: CHO cells expressing human beta-2 adrenoreceptors, [3H](−)CGP-12177 0.3 nM, 120 min
recorded-metric: IC50

Below: 6 compounds and their reported IC50.
1) COc1cccc(Nc2c(C(N)=O)cnc3c(C)cc(S(=O)(=O)c4cccc(C(=O)N(C)c5ccc(C#CCCCNC[C@H](O)c6ccc(O)c7[nH]c(=O)ccc67)cc5)c4)cc23)c1 ... < 100 nM
2) COc1cccc(Nc2c(C(N)=O)cnc3c(C)cc(S(=O)(=O)c4cccc(C(=O)Nc5cccc(C#CCCCNC[C@H](O)c6ccc(O)c7[nH]c(=O)ccc67)c5)c4)cc23)c1 ... < 100 nM
3) COc1cccc(Nc2c(C(N)=O)cnc3c(C)cc(S(=O)(=O)c4cccc(C(=O)N(C)CCCCCCNC[C@H](O)c5ccc(O)c(CO)c5)c4)cc23)c1 ... > 300 nM
4) COc1cccc(Nc2c(C(N)=O)cnc3c(C)cc(S(=O)(=O)c4cccc(C(=O)Nc5ccc(C#CCCCN(C)C[C@H](O)c6ccc(O)c7[nH]c(=O)ccc67)cc5)c4)cc23)c1 ... > 300 nM
5) COc1cccc(Nc2c(C(N)=O)cnc3c(C)cc(S(=O)(=O)c4cccc(C(=O)N(C)CCOc5ccc(CCNC[C@H](O)c6ccc(O)c7[nH]c(=O)ccc67)cc5)c4)cc23)c1 ... > 300 nM
6) COc1cccc(Nc2c(C(N)=O)cnc3c(C)cc(S(=O)(=O)c4ccc(-c5ccc(CNC[C@H](O)c6ccc(O)c7[nH]c(=O)ccc67)cc5)cc4)cc23)c1 ... < 100 nM

Q: What IC50 value was documented for this compound, COc1cccc(Nc2c(C(N)=O)cnc3c(C)cc(S(=O)(=O)c4cccc(C(=O)NCCCCCCNC[C@H](O)c5ccc(O)c(CO)c5)c4)cc23)c1 ?
Ans: < 100 nM

Q: I'd like to know its IC50. The compound in question is COc1cccc(Nc2c(C(N)=O)cnc3c(C)cc(S(=O)(=O)c4cccc(-c5ccc(CCCNC[C@H](O)c6ccc(O)c7c6OCC(=O)N7)cc5)c4)cc23)c1
Ans: < 100 nM

Q: Find the recorded IC50 belonging to COc1cccc(Nc2c(C(N)=O)cnc3c(C)cc(S(=O)(=O)c4cccc(C(=O)N5CCC(OCCCCCCNC[C@H](O)c6ccc(O)c7[nH]c(=O)ccc67)CC5)c4)cc23)c1 and report it.
Ans: < 100 nM

Q: // IC50 lookup, key: COc1cccc(Nc2c(C(N)=O)cnc3c(C)cc(S(=O)(=O)c4cccc(CN(C)C(=O)c5cccc(CC(C)(C)NC[C@H](O)c6ccc(O)c7[nH]c(=O)ccc67)c5)c4)cc23)c1
Ans: < 100 nM

Q: Bench note: what IC50 did COc1cccc(Nc2c(C(N)=O)cnc3c(C)cc(S(=O)(=O)c4cccc(C(=O)N(C)CCCCCCNC[C@H](O)c5ccc(O)c6[nH]c(=O)ccc56)c4)cc23)c1 show?
Ans: > 300 nM

###

Each item that follows carries a reported IC50.
biological target: human recombinant beta-2 adrenoreceptors (Homo sapiens, UniProt P07550); test: Beta-2 adrenoceptor binding assay ([3H](−)CGP-12177 displacement); details: CHO cells expressing human beta-2 adrenoreceptors, [3H](−)CGP-12177 0.3 nM, 120 min

The examples below pair each entry with its known result.
1. COc1cccc(Nc2c(C(N)=O)cnc3c(C)cc(S(=O)(=O)c4cccc(C(=O)N(C)c5ccc(CCCCOCCCCCCNC[C@H](O)c6ccc(O)c7[nH]c(=O)ccc67)cc5)c4)cc23)c1 [Example 40] ... < 0.1 µM
2. COc1cccc(Nc2c(C(N)=O)cnc3c(C)cc(S(=O)(=O)c4cccc(C(=O)Nc5ccc(CCNC[C@H](O)c6ccc(O)c7[nH]c(=O)ccc67)cc5)c4)cc23)c1 [Example 12] ... < 0.1 µM
3. COc1cccc(Nc2c(C(N)=O)cnc3c(C)cc(S(=O)(=O)c4cccc(C(=O)N(C)CCCCCCNC[C@H](O)c5ccc(O)c(NC=O)c5)c4)cc23)c1 [Example 28] ... > 0.3 µM

Read the next record carefully.
Q: Short answer please: IC50, human recombinant beta-2 adrenoreceptors (Homo sapiens, UniProt P07550), entry COc1cccc(Nc2c(C(N)=O)cnc3c(C)cc(S(=O)(=O)c4cccc(C(=O)Nc5ccc(C#CCCCCNC[C@H](O)c6ccc(O)c7[nH]c(=O)ccc67)cc5)c4)cc23)c1 [Example 7]
Ans: < 0.1 µM
